B1: TRIM63 (parent)
chain: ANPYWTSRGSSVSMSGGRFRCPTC

# Variants of: B1
# PROTOCOL: protein stability index of a GFP-peptide fusion (GPS, HEK-293T) (PSI 1-6); higher = more stable;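 also: lentivirally expressed fusions sorted by FACS into six bins by GFP to DsRed ratio, PSI derived from sequencing read proportions per bin multiplied by bin number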
# APPLIED CONDITIONS: c terminus: a fixed tail appended
REPORTED METRIC: protein stability index
Output spec: single numeric token, no unit.

Input line: Entry under review: C21I . Reported protein stability index?
Output line: 2.67

Input line: Then what about the variant G16E ?
Output line: 1.58

Input line: Then what about the variant R18A ?
Output line: 1.89

Input line: Then what about the variant R8C ?
Output line: 1.23

Input line: Then what about the variant C24D ?
Output line: 3.73

Input line: Then what about the variant V12S ?
Output line: 2.46

Input line: Then what about the variant P3R ?
Output line: 1.84

Input line: Then what about the variant R20P ?
Output line: 2.4

Input line: Then what about the variant W5N ?
Output line: 2.44

Input line: Then what about the variant C24E ?
Output line: 3.19

Input line: Then what about the variant W5S ?
Output line: 1.9

Input line: Then what about the variant W5A ?
Output line: 1.92

Input line: Then what about the variant S7W ?
Output line: 2.62

Input line: Then what about the variant W5V ?
Output line: 2.59

Input line: Then what about the variant S15P ?
Output line: 2.09

Input line: Then what about the variant R8H ?
Output line: 1.41

Input line: Then what about the variant P3M ?
Output line: 1.54

Input line: Then what about the variant G17N ?
Output line: 1.75

Input line: Then what about the variant S11A ?
Output line: 2.3

Input line: Then what about the variant V12A ?
Output line: 1.49

Input line: Then what about the variant G16D ?
Output line: 2.23

Input line: Then what about the variant N2C ?
Output line: 2.43
